System: Enterovirus A71
protocol_description: Antiviral activity against Human enterovirus 71 infected in human Hep2 cells at maximum non-cytotoxic concentration […] by plaque reduction assay
Assay type: functional, HEp-2
Give inhibition (INH) for every item shown.
Answers are plain numbers, in %.

Some molecules with known inhibition (INH) results, for comparison:
smiles_text	inhibition (INH) [%]
Clc1ccc(/C=C/C=C/C2=Cc3cc(Cl)ccc3OC2)cc1	39.1
O=c1c(/C=C/c2ccc(Cl)cc2)coc2ccc(Cl)cc12	35.7
Clc1ccc(/C=C/C=C/C2=Cc3ccccc3OC2)cc1	32.9
Clc1ccc(/C=C/C2=Cc3ccccc3OC2)cc1	49.7
O=c1c(/C=C/C=C/c2ccccc2)coc2ccc(Cl)cc12	46.7

Give me inhibition (INH) for each of these molecules, listed below.
1. O=c1c(/C=C/C=C/c2ccc(Cl)cc2)coc2ccc(Cl)cc12
2. O=c1c(/C=C/c2ccccc2)coc2ccc(Cl)cc12
3. O=c1c(/C=C/C=C/c2ccc(Cl)cc2)coc2ccccc12
4. O=c1c(/C=C/C=C/c2ccccc2)coc2ccccc12
5. C1=C(/C=C/c2ccccc2)COc2ccccc21
6. Clc1ccc2c(c1)C=C(/C=C/C=C/c1ccccc1)CO2
7. O=c1c(/C=C/c2ccccc2)coc2ccccc12
8. Clc1ccc(/C=C/C2=Cc3cc(Cl)ccc3OC2)cc1

1: 46.6; 2: 37; 3: 49.1; 4: 39.8; 5: 36.1; 6: 25.4; 7: 34.6; 8: 46.6

----------
protocol_description: Cytotoxicity against human HeLa cells assessed as maximum non-cytotoxic concentration after 3 days by XTT assay
Assay type: cell-based
measure_name: MNTC at 72 h (µM)
Answers are plain numbers, in µM.

smiles_text	MNTC at 72 h, µM
Clc1ccc2c(c1)C=C(/C=C/C=C/c1ccccc1)CO2	12.5
Clc1ccc(/C=C/C=C/C2=Cc3ccccc3OC2)cc1	3.12
O=c1c(/C=C/C=C/c2ccccc2)coc2ccc(Cl)cc12	50
C1=C(/C=C/C=C/c2ccccc2)COc2ccccc21	50
O=c1c(/C=C/C=C/c2ccccc2)coc2ccccc12	25

I need MNTC at 72 h for every entry listed below, if you could help.
1. Clc1ccc(/C=C/C=C/C2=Cc3cc(Cl)ccc3OC2)cc1
2. Clc1ccc2c(c1)C=C(/C=C/c1ccccc1)CO2

1. 6.25
2. 50

Provide MNTC at 72 h for all items below, preserving their order.
1. O=c1c(/C=C/c2ccccc2)coc2ccc(Cl)cc12
2. Clc1ccc(/C=C/C2=Cc3cc(Cl)ccc3OC2)cc1

25
25

Field: MNTC at 72 h. Fill in for each record below.
1. O=c1c(/C=C/C=C/c2ccc(Cl)cc2)coc2ccccc12
2. Clc1ccc(/C=C/C2=Cc3ccccc3OC2)cc1
3. O=c1c(/C=C/C=C/c2ccc(Cl)cc2)coc2ccc(Cl)cc12
4. C1=C(/C=C/c2ccccc2)COc2ccccc21
5. O=c1c(/C=C/c2ccc(Cl)cc2)coc2ccc(Cl)cc12

1. 25
2. 50
3. 3.12
4. 25
5. 25

Fill in the blank: the reported MNTC at 72 h of O=c1c(/C=C/c2ccc(Cl)cc2)coc2ccccc12 is ____.
25

----------
protocol_description: Therapeutic index, ratio of TC50 for human HeLa cells to IC50 for HRV 1B
Format: cell-based
assay_setup: read-out: TI
Exercise: state measured selectivity ratio for each of the compounds provided.

Known results for compounds:
smiles_text	result
Clc1ccc(/C=C/C=C/C2=Cc3ccccc3OC2)cc1	2
O=c1c(/C=C/C=C/c2ccc(Cl)cc2)coc2ccc(Cl)cc12	8.8
O=c1c(/C=C/c2ccccc2)coc2ccccc12	> 64.2

Entry O=c1c(/C=C/C=C/c2ccccc2)coc2ccc(Cl)cc12 : reported selectivity ratio = ?
62.5

----------
Test system: rhinovirus A1B
protocol_description: Antiviral activity against Human rhinovirus 1B infected in human HeLa cells after 3 days by plaque reduction assay
Assay type: functional, organism-based
assay_setup: Rhinovirus A, 72 h
Please respond with reported pIC50 for every item in the list.
Answers are plain numbers, as −log10 of the molar value.

Recorded pIC50, per entry:
smiles_text	tested_on	pIC50
Clc1ccc2c(c1)C=C(/C=C/C=C/c1ccccc1)CO2	rhinovirus A1B	5.20
O=c1c(/C=C/C=C/c2ccccc2)coc2ccccc12	rhinovirus A1B	5.28
C1=C(/C=C/C=C/c2ccccc2)COc2ccccc21	rhinovirus A1B	4.51
O=c1c(/C=C/C=C/c2ccc(Cl)cc2)coc2ccccc12	rhinovirus A1B	5.39
O=c1c(/C=C/C=C/c2ccccc2)coc2ccc(Cl)cc12	rhinovirus A1B	5.80
O=c1c(/C=C/c2ccc(Cl)cc2)coc2ccccc12	rhinovirus A1B	5.34
Clc1ccc(/C=C/C2=Cc3ccccc3OC2)cc1	rhinovirus A1B	6.40
Clc1ccc(/C=C/C=C/C2=Cc3cc(Cl)ccc3OC2)cc1	rhinovirus A1B	6.27
O=c1c(/C=C/c2ccccc2)coc2ccccc12	rhinovirus A1B	5.51
C1=C(/C=C/c2ccccc2)COc2ccccc21	rhinovirus A1B	6.70

// input: 6 compounds below; output: pIC50 for each
1. Clc1ccc2c(c1)C=C(/C=C/c1ccccc1)CO2
2. Clc1ccc(/C=C/C=C/C2=Cc3ccccc3OC2)cc1
3. Clc1ccc(/C=C/C2=Cc3cc(Cl)ccc3OC2)cc1
4. O=c1c(/C=C/c2ccccc2)coc2ccc(Cl)cc12
5. O=c1c(/C=C/C=C/c2ccc(Cl)cc2)coc2ccc(Cl)cc12
6. O=c1c(/C=C/c2ccc(Cl)cc2)coc2ccc(Cl)cc12

4.95
5.51
5.15
5.49
6.15
5.66

----------
protocol_description: Cytotoxicity against human Hep2 cells assessed as maximum non-cytotoxic concentration after 3 days by XTT assay
Assay type: cell-based, HEp-2
Assign MNTC at 72 h to each entry below.
Give bare numbers, in µM.

compound	MNTC at 72 h / µM
Clc1ccc(/C=C/C2=Cc3ccccc3OC2)cc1	50

Would you be so kind as to report MNTC at 72 h for each listed record?
1. Clc1ccc(/C=C/C=C/C2=Cc3ccccc3OC2)cc1
2. C1=C(/C=C/c2ccccc2)COc2ccccc21
3. Clc1ccc2c(c1)C=C(/C=C/C=C/c1ccccc1)CO2
4. Clc1ccc(/C=C/C=C/C2=Cc3cc(Cl)ccc3OC2)cc1
5. O=c1c(/C=C/C=C/c2ccc(Cl)cc2)coc2ccccc12
6. O=c1c(/C=C/C=C/c2ccccc2)coc2ccc(Cl)cc12
7. Clc1ccc(C2CCc3cc(Cl)ccc3O2)cc1 (configuration not stated)
8. O=c1c(/C=C/c2ccc(Cl)cc2)coc2ccccc12

1: 3.12; 2: 12.5; 3: 12.5; 4: 6.25; 5: 25; 6: 50; 7: 10; 8: 25

// each compound listed below needs its MNTC at 72 h
1. O=c1c(/C=C/C=C/c2ccc(Cl)cc2)coc2ccc(Cl)cc12
2. Clc1ccc2c(c1)C=C(/C=C/c1ccccc1)CO2
3. C1=C(/C=C/C=C/c2ccccc2)COc2ccccc21

1: 3.12; 2: 50; 3: 50

Dear reader, for each entry below, please note its MNTC at 72 h.
1. O=c1c(/C=C/c2ccccc2)coc2ccc(Cl)cc12
2. Clc1ccc(/C=C/C2=Cc3cc(Cl)ccc3OC2)cc1

1: 25; 2: 12.5

// batch mode: one MNTC at 72 h value per listed entry
1. O=c1c(/C=C/c2ccccc2)coc2ccccc12
2. O=c1c(/C=C/C=C/c2ccccc2)coc2ccccc12

1. 50
2. 25

Could you share which MNTC at 72 h value was measured for O=c1c(/C=C/c2ccc(Cl)cc2)coc2ccc(Cl)cc12 ?
25

----------
protocol_description: Therapeutic index, ratio of TC50 for human HeLa cells to IC50 for HRV 1B
Type: cell-based
assay_setup: read-out: TI
Tag: TRUE if measured selectivity ratio is not below 9, FALSE if it is.

Dear colleague, could you confirm whether Clc1ccc(/C=C/C2=Cc3ccccc3OC2)cc1 has selectivity ratio at or above 9?
TRUE

Input O=c1c(/C=C/c2ccccc2)coc2ccc(Cl)cc12
TRUE

And what about the compound C1=C(/C=C/c2ccccc2)COc2ccccc21 ?
TRUE

And the next one, O=c1c(/C=C/c2ccc(Cl)cc2)coc2ccccc12 ?
TRUE

Same question, Clc1ccc(/C=C/C2=Cc3cc(Cl)ccc3OC2)cc1 this time
FALSE

Also check C1=C(/C=C/C=C/c2ccccc2)COc2ccccc21
FALSE

Here is the next compound: O=c1c(/C=C/C=C/c2ccccc2)coc2ccccc12
TRUE

Another: Clc1ccc(/C=C/C=C/C2=Cc3cc(Cl)ccc3OC2)cc1
TRUE

And O=c1c(/C=C/c2ccc(Cl)cc2)coc2ccc(Cl)cc12 ?
TRUE

Please answer likewise for Clc1ccc2c(c1)C=C(/C=C/C=C/c1ccccc1)CO2
FALSE

Input O=c1c(/C=C/C=C/c2ccc(Cl)cc2)coc2ccccc12
TRUE

----------
protocol_description: Cytotoxicity against human HeLa cells after 3 days by XTT assay
Format: cell-based
assay_setup: read-out: TC50
measure_name: CC50 at 72 h (µM)
Answers are plain numbers, in µM.

Solved cases (5 shown):
smiles_text	display_unit	numeric_result
Clc1ccc2c(c1)C=C(/C=C/C=C/c1ccccc1)CO2	µM	25
O=c1c(/C=C/c2ccc(Cl)cc2)coc2ccc(Cl)cc12	µM	50
O=c1c(/C=C/C=C/c2ccccc2)coc2ccccc12	µM	50
O=c1c(/C=C/C=C/c2ccc(Cl)cc2)coc2ccccc12	µM	50
Clc1ccc(/C=C/C2=Cc3cc(Cl)ccc3OC2)cc1	µM	50

What measured CC50 at 72 h goes with C1=C(/C=C/C=C/c2ccccc2)COc2ccccc21 ?
100

The reported measurements were obtained from ChEMBL document CHEMBL1240484.
